FYI, the data here is from patent US20100062995A1.

# target-of-assay: human MTAP (Homo sapiens, UniProt Q13126)
# Construct: His6 (N); made in house; host or cells: E. coli (pQE32 vector)
# Sequence (Q13126 whole entry): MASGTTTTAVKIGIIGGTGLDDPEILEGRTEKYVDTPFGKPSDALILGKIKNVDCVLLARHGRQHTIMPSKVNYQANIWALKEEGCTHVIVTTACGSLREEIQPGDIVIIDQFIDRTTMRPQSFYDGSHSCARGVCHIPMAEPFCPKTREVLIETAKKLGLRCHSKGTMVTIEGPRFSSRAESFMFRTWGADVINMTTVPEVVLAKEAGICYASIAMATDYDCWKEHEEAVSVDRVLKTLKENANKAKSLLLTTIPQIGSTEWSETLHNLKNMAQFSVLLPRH
# measurement-description: Measurement of kinetic isotope effects on arsenolysis of MTA
# Format: biochemical
# experimental-conditions: pH 7.5, arsenolysis of MTA, observed KIE corrected for forward commitment
# Protocol: Measurement of kinetic isotope effects. The KIEs were measured by mixing ^3H and ^14C labeled substrates with ^3H:^14C in 4:1 ratio. […] Each 1.0 mL of eluate was mixed with 9.0 mL scintillation fluid and counted for at least 3 cycles at 10 minutes per cycle. The ^3H to ^14C ratio was determined for partial and complete reactions and the KIEs were corrected to 0% hydrolysis by the equation: […]
Reported Intrinsic KIEs is given for each of the following compounds.

{"columns": ["compound", "Intrinsic KIEs"],
 "data": [
  ["CS[14CH2][C@H]1O[C@@H]([15n]2cnc3c(N)ncnc32)[C@H](O)[C@@H]1O [[9-^15N/5′-^14C]]", 1.037],
  ["CSC[C@H]1O[14C@@H](n2cnc3c(N)ncnc32)[C@H](O)[C@@H]1O [[1′-^14C], [1′-^14C]MTA]", 1.030],
  ["[3H]C([3H])([3H])SC[C@H]1O[C@@H](n2cnc3c(N)ncnc32)[C@H](O)[C@@H]1O [[Me-^3H], [methyl-^3H3]MTA]", 1.086]
]}

* * *

Reported KIE (experimental) is given for each of the following compounds.
# target-of-assay: human MTAP (Homo sapiens, UniProt Q13126)
# Construct: His6 (N); made in house; host or cells: E. coli (pQE32 vector)
# measurement-description: Measurement of kinetic isotope effects on arsenolysis of MTA
# Type: biochemical
# experimental-conditions: pH 7.5, arsenolysis of MTA, corrected to 0% substrate depletion

{"columns": ["compound", "KIE (experimental)"],
 "data": [
  ["[3H]C([3H])(SC)[C@H]1O[C@@H](n2cnc3c(N)ncnc32)[C@H](O)[C@@H]1O [[5′-^3H], [5′-^3H]MTA]", 1.038],
  ["[3H][C@]1(CSC)O[C@@H](n2cnc3c(N)ncnc32)[C@H](O)[C@@H]1O [[4′-^3H], [4′-^3H]MTA]", 1.037],
  ["[3H][C@@]1(O)[C@H](O)[C@@H](CSC)O[C@H]1n1cnc2c(N)ncnc21 [[2′-^3H], [2′-^3H]MTA]", 1.063],
  ["[3H]C1(n2cnc3c(N)ncnc32)OC(CSC)C(O)C1O (stereo not shown) [[1′-^3H], [1′-^3H]MTA]", 1.290],
  ["[3H]C([3H])([3H])SC[C@H]1O[C@@H](n2cnc3c(N)ncnc32)[C@H](O)[C@@H]1O [[Me-^3H], [methyl-^3H3]MTA]", 1.073]
]}

* * *

# target-of-assay: human MTAP (Homo sapiens)
# Construct: His6 (N); made in house; host or cells: E. coli (pQE32 vector)
# measurement-description: Measurement of kinetic isotope effects on arsenolysis of MTA
# Assay type: biochemical
# experimental-conditions: pH 7.5, arsenolysis of MTA, observed KIE corrected for forward commitment

{"columns": ["compound", "Intrinsic KIEs"],
 "data": [
  ["[3H]C1(n2cnc3c(N)ncnc32)OC(CSC)C(O)C1O (stereo not shown) [[1′-^3H], [1′-^3H]MTA]", "1.350 ± 0.003"],
  ["[3H][C@@]1(O)[C@H](O)[C@@H](CSC)O[C@H]1n1cnc2c(N)ncnc21 [[2′-^3H], [2′-^3H]MTA]", "1.076 ± 0.003"],
  ["[3H][C@]1(CSC)O[C@@H](n2cnc3c(N)ncnc32)[C@H](O)[C@@H]1O [[4′-^3H], [4′-^3H]MTA]", "1.045 ± 0.005"],
  ["[3H]C([3H])(SC)[C@H]1O[C@@H](n2cnc3c(N)ncnc32)[C@H](O)[C@@H]1O [[5′-^3H], [5′-^3H]MTA]", "1.046 ± 0.001"]
]}
